Would you kindly list pIC50 for each of these compounds?
Biological target: UniProtKB Q9UQ49
Test: Inhibition of human NEU3 expressed in HEK293 cells
pIC50: −log10 of the molar value.

Exam item: Which pIC50 is reported with UniProtKB Q9UQ49 for this entry: CC(=O)N[C@H]1[C@H]([C@@H](O)[C@@H](O)CNC(=O)c2ccccc2)OC(C(=O)O)=C[C@@H]1O ?
Marked response: 3.49

Exam item: Try the compound CC(=O)NC[C@H](O)[C@H](O)[C@@H]1OC(C(=O)O)=C[C@H](O)[C@H]1NC(C)=O
Marked response: < 3.00

Exam item: Try the compound CC(=O)N[C@H]1[C@H]([C@@H](O)[C@@H](O)CNC(=O)CC(C)C)OC(C(=O)O)=C[C@@H]1O
Marked response: < 3.00

Exam item: Try the compound CC(=O)N[C@H]1[C@H]([C@@H](O)[C@@H](O)CNC(=O)C(C)(C)C)OC(C(=O)O)=C[C@@H]1O
Marked response: < 3.00

* * *

Would you kindly list pIC50 for each of these compounds?
Target: Sialidase-1 (Homo sapiens, UniProt Q99519)
Test: Inhibition of human NEU1 expressed in HEK293 cells
Lab note — pIC50 values are minus log10 of concentrations in M.

Exam item: Which pIC50 is reported for this compound? CC(=O)NC[C@H](O)[C@H](O)[C@@H]1OC(C(=O)O)=C[C@H](O)[C@H]1NC(C)=O
Marked response: 4.24

Exam item: Try the compound CC(=O)N[C@H]1[C@H]([C@@H](O)[C@@H](O)CNC(=O)C2CCCC2)OC(C(=O)O)=C[C@@H]1O
Marked response: 3.87

* * *

Target: Sialidase-3 (Homo sapiens, UniProt Q9UQ49)
Sequence (Q9UQ49 whole entry): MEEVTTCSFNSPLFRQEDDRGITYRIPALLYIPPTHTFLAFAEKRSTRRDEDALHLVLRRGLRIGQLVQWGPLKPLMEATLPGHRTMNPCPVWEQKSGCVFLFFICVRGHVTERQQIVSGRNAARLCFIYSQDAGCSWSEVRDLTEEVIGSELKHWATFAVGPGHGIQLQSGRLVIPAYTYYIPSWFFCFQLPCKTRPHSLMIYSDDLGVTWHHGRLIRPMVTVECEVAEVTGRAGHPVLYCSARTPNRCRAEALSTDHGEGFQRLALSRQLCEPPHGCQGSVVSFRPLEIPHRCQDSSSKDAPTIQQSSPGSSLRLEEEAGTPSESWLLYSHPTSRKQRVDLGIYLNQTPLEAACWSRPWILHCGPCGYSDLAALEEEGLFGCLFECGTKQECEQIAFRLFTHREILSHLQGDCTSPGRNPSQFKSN
Experiment: Inhibition of human NEU3 expressed in HEK293 cells
pIC50: −log10 of the molar value.
Would you kindly list pIC50 for each of these compounds?

Exam item: Which pIC50 is reported for this compound? CC(=O)N[C@H]1[C@H]([C@@H](O)[C@@H](O)CNC(=O)C2CC2)OC(C(=O)O)=C[C@@H]1O
Marked response: < 3.00

Exam item: Try the compound CC(=O)N[C@H]1[C@H]([C@@H](O)[C@@H](O)CNC(=O)C2CCCC2)OC(C(=O)O)=C[C@@H]1O
Marked response: < 3.00

Exam item: Try the compound CCC(C)CC(=O)NC[C@H](O)[C@H](O)[C@@H]1OC(C(=O)O)=C[C@H](O)[C@H]1NC(C)=O (stereo not given in full)
Marked response: < 3.00

Exam item: Try the compound CCCC(=O)NC[C@H](O)[C@H](O)[C@@H]1OC(C(=O)O)=C[C@H](O)[C@H]1NC(C)=O
Marked response: < 3.00

Exam item: Try the compound CC(=O)N[C@H]1[C@H]([C@@H](O)[C@@H](O)CNC(=O)C(C)C)OC(C(=O)O)=C[C@@H]1O
Marked response: < 3.00

* * *

Biological target: Sialidase-4 (Homo sapiens, UniProt Q8WWR8)
Sequence (Q8WWR8 whole entry): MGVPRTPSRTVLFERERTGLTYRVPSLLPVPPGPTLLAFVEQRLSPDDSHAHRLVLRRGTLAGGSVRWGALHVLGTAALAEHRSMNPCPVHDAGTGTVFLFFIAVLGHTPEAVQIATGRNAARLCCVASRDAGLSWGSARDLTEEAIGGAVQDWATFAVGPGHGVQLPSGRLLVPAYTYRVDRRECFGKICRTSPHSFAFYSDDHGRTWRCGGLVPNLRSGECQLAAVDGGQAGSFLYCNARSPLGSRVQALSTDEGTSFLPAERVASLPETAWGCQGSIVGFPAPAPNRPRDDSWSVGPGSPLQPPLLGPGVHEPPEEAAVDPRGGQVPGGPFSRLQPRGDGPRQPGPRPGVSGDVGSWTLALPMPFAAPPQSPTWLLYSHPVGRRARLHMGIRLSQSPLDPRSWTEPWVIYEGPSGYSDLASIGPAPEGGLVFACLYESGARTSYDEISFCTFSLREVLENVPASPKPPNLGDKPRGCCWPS
Assay: Inhibition of human NEU4 expressed in HEK293 cells
pIC50: −log10 of the molar value.
Would you kindly list pIC50 for each of these compounds?

Exam item: Which pIC50 is reported for this compound? CC(=O)N[C@H]1[C@H]([C@@H](O)[C@@H](O)CNC(=O)c2ccccc2)OC(C(=O)O)=C[C@@H]1O
Marked response: 3.09

Exam item: Try the compound CC(=O)N[C@H]1[C@H]([C@@H](O)[C@@H](O)CNC(=O)C(C)(C)C)OC(C(=O)O)=C[C@@H]1O
Marked response: < 3.00

Exam item: Try the compound CC(=O)N[C@H]1[C@H]([C@@H](O)[C@@H](O)CNC(=O)C2CC2)OC(C(=O)O)=C[C@@H]1O
Marked response: 3.08

Exam item: Try the compound CC(=O)N[C@H]1[C@H]([C@@H](O)[C@@H](O)CNC(=O)CC(C)C)OC(C(=O)O)=C[C@@H]1O
Marked response: < 3.00

Exam item: Try the compound CCCCC(=O)NC[C@H](O)[C@H](O)[C@@H]1OC(C(=O)O)=C[C@H](O)[C@H]1NC(C)=O
Marked response: < 3.00

Exam item: Try the compound CC(=O)NC[C@H](O)[C@H](O)[C@@H]1OC(C(=O)O)=C[C@H](O)[C@H]1NC(C)=O
Marked response: 3.24

Exam item: Try the compound CCC(C)CC(=O)NC[C@H](O)[C@H](O)[C@@H]1OC(C(=O)O)=C[C@H](O)[C@H]1NC(C)=O (some centres undefined)
Marked response: < 3.00

Exam item: Try the compound CC(=O)N[C@H]1[C@H]([C@@H](O)[C@@H](O)CNC(=O)C2CCCC2)OC(C(=O)O)=C[C@@H]1O
Marked response: < 3.00

Exam item: Try the compound CC(=O)N[C@H]1[C@H]([C@@H](O)[C@@H](O)CNC(=O)C(C)C)OC(C(=O)O)=C[C@@H]1O
Marked response: < 3.00
